Origin of measurements: patent US20220135701A1

Target: T1, mouse MerTK (mouse, UniProt Q60805 23-496)
T1 construct: also called MuMER
T1 sequence (looked up): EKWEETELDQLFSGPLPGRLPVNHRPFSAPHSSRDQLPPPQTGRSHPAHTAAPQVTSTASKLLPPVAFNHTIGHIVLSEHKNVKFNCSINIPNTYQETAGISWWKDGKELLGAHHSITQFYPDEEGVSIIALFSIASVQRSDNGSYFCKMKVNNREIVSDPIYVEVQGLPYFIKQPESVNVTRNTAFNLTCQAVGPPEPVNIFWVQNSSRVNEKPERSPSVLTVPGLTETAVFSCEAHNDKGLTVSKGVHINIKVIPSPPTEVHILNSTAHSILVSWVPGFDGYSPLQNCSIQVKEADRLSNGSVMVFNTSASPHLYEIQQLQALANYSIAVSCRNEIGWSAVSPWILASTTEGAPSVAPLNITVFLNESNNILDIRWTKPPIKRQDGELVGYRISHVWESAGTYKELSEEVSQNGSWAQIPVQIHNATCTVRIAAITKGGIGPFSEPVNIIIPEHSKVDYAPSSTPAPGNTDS
Experiment: SPR BIAcore T200, Ab captured, 37C
Quick list: Kd per entry.
Entry rule: numbers only, all in nM.

Observe how each entry below is paired with its result.
>  <BINDER>
h10F7.v1 (antibody, V domains shown, also called h10F7.V1 (Parent); 10F7 Humanized mAb V1) VH: EQQLVESGGGLVQPGGSLRLSCAVSGFSLSGYAMSWVRQAPGKGLEYIGVISSSGSSYYPSWAKGRFTISKDSSKNTVYLQMGSLRAEDMAVYFCARVQFYVGYAVYGYGIIDRLDLWGQGTLVTVSS VL: DAVLTQSPDSLAVSLGERATINCQSSKSVYNNNWLSWYQQKPGQPPKLLIYRASTLESGVPDRFSGSGSGTDFTLTISSLQAEDVAVYFCAGGYSSSSSANAFGGGTKVEIK

>  <READOUT UNIT>
nM

>  <Kd>
1.5

$$$$
>  <BINDER>
h10F7.v16 (antibody, V domains shown, Humanized, human IgG1; also called 10F7 Fully Humanized; 10F7 Humanized polished mAb) VH: EVQLVESGGGLVQPGGSLRLSCAVSGFSLSGYAMSWVRQAPGKGLEYIGVISSSGSSYYPSWAKGRFTISKDNSKNTLYLQMGSLRAEDMAVYYCARVQFYVGYAVYGYGIIDRLDLWGQGTLVTVSS VL: DIVLTQSPDSLAVSLGERATINCQSSKSVYNNNWLSWYQQKPGQPPKLLIYRASTLESGVPDRFSGSGSGTDFTLTISSLQAEDVAVYFCAGGYSSSSSANAFGGGTKVEIK

>  <READOUT UNIT>
nM

>  <Kd>
1.4

$$$$

## Input Could you share which Kd value was measured for h9E3.FN.v16 (antibody, V domains shown, Humanized, human IgG1; also called 9E3.FN Humanized polished mAb) VH: EVQLVESGGGLIQPGGSLRLSCAASGFSLSSNAMSWVRQAPGKGLEWVSIISSSGSTYSASWAKGRFTISKDNSKNTLYLQMNSLRAEDTAVYYCARVGFFVGYGAYDYGIIHRLDLWGQGTLVTVSS VL: DIQLTQSPSTLSASVGDRVTITCQSSKSIYNNNWLSWYQQKPGKPPKLLIYDASDLASGVPSRFSGSGSGTEFTLTISSLQPDDFATYYCAGGYSGDSDYAFGGGTKVEIK ?
## Output 1.1

## Input // same read-out, input: h9E3.FN.v1 (antibody, V domains shown, also called h9E3.FN.V1 (Parent); 9E3.FN Humanized mAb V1) VH: EQQLVESGGGLIQPGGSLRLSCAVSGFSLSSNAMSWVRQAPGKGLEWIGIISSSGSTYSASWAKGRFTISKDSSKNTMYLQMNSLRAEDTAVYFCARVGFFVGYGAYDYGIIHRLDLWGQGTLVTVSS VL: DAQLTQSPSTLSASVGDRVTITCQSSKSIYNNNWLSWYQQKPGKPPKLLIYDASDLASGVPSRFSGSGSGTEFTLTISSLQPDDFATYYCAGGYSGDSDYAFGGGTKVEIK
## Output 1.4
